# TESTED ON: FGFR1 IIIc (Homo sapiens, UniProt P11362)
# Construct: host or cells: Cos-1
# Sequence (P11362 22-822): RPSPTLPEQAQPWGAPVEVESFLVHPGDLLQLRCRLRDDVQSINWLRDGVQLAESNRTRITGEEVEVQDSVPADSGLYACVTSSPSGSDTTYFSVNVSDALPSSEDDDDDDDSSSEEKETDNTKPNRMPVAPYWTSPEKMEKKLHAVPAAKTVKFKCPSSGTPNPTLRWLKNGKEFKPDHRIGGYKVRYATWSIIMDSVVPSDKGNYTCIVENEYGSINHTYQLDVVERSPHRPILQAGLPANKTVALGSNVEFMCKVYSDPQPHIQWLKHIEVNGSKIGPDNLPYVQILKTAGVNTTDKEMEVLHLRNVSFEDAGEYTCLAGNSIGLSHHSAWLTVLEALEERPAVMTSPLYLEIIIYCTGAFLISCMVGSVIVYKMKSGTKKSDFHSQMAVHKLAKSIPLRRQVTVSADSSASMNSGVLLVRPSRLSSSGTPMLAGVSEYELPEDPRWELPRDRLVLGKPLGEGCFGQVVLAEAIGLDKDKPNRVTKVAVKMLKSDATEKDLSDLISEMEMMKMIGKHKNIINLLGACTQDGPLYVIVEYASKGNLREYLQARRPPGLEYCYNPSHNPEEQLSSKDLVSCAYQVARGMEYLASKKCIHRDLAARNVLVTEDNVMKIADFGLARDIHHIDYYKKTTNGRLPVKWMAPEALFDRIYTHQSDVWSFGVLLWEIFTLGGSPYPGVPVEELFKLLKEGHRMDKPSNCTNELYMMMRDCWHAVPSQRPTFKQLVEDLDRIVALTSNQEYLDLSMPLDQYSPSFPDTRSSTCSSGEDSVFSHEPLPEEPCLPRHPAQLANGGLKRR
# METHOD: Cell based inhibition of transiently expressed FGFR1 IIIc phosphorylation via use of ECHO technology (Cos-1 cells)
# TEST CONDITIONS: Cos-1 cells, phospho-FGFR1, ECHO dosing; upper bound of bin; read-out: IC50
pIC50: −log10 of the molar value.
MEASURED ATTRIBUTE: pIC50

Consider the following illustrative entries.
Cc1cc(CNc2nccc(Nc3cc(OC(C)C)[nH]n3)n2)on1 ... > 6.00
COc1cc(Cl)cc(CCc2cc(Nc3ccnc(NCc4cc(C(N)=O)no4)n3)[nH]n2)c1 ... > 6.70
CC(C)Oc1cc(Nc2ccnc(NCc3cc(C4CC4)no3)n2)n[nH]1 ... > 6.70

With those in mind, consider the next compound.
For Cc1cc(CNc2nc(C)cc(Nc3cc(OC(C)C)[nH]n3)n2)on1 , what is its reported pIC50?
> 6.70
